Let's go through some recorded IC50 values for Estrogen receptor (Rattus norvegicus, UniProt P06211+Q62986) together.
Provide a numeric answer, followed by its unit.

Task item: Need IC50, item CCC(=C(c1ccc(O)cc1)c1ccc(O)cc1)c1ccc(OCC(=O)O)cc1
Reply: 750 nM

Task item: Also need CC/C(=C(\c1ccc(C)cc1)c1ccc(OCC(=O)O)cc1)c1ccccc1 , thanks.
Reply: 1060 nM

Task item: Also need O=C(O)COc1ccc(C(Cc2ccccc2)c2ccc(O)cc2)cc1 (stereo unspecified) , thanks.
Reply: 900 nM

Task item: Also need CC/C(=C(\c1ccccc1)c1ccc(OCC(=O)O)cc1)c1ccccc1 , thanks.
Reply: 4500 nM

Task item: Also need CC/C(=C(\c1ccc(O)cc1)c1ccc(OCC(=O)O)cc1)c1ccccc1 , thanks.
Reply: 9 nM

Task item: Also need CC/C(=C(\c1ccc(O)cc1)c1ccc(CC(=O)O)cc1)c1ccccc1 , thanks.
Reply: 450 nM

* * *

System: MCF7
Method description: cells
Measurement parameters: Homo sapiens
pIC50: −log10 of the molar value.
Output Met for pIC50 not less than 7; output Not met otherwise.

Task item: Is it the case that CC/C(=C(\c1ccccc1)c1ccc(OCC(=O)O)cc1)c1ccccc1 has pIC50 reaching or exceeding 7?
Reply: Not met

Task item: Also need CC/C(=C(\c1ccc(O)cc1)c1ccc(OCC(=O)O)cc1)c1ccccc1 , thanks.
Reply: Met

Task item: Also need CCC(=C(c1ccc(O)cc1)c1ccc(O)cc1)c1ccc(OCC(=O)O)cc1 , thanks.
Reply: Not met

Task item: Also need O=C(O)COc1ccc(C(Cc2ccccc2)c2ccc(O)cc2)cc1 (stereo unspecified) , thanks.
Reply: Not met

Task item: Also need CC/C(=C(\c1ccc(O)cc1)c1ccc(CC(=O)O)cc1)c1ccccc1 , thanks.
Reply: Met

* * *

Test system: MCF7
Method description: cells
Measurement parameters: Homo sapiens
Description: Stimulation of MCF-7 cell proliferation
Record form. Attribute: EC50. Fill in for each entry.
All answers are understood in µM, so give the number only.

Task item: Need EC50, item O=C(O)COc1ccc(C(Cc2ccccc2)c2ccc(O)cc2)cc1 (stereo unspecified)
Reply: 0.016

Task item: Also need CCC(=C(c1ccc(O)cc1)c1ccc(O)cc1)c1ccc(OCC(=O)O)cc1 , thanks.
Reply: 0.046

Task item: Also need CC/C(=C(\c1ccc(O)cc1)c1ccc(CC(=O)O)cc1)c1ccccc1 , thanks.
Reply: 0.042

Task item: Also need CC/C(=C(\c1ccc(O)cc1)c1ccc(OCC(=O)O)cc1)c1ccccc1 , thanks.
Reply: 0.0053

Task item: Also need CC/C(=C(\c1ccccc1)c1ccc(OCC(=O)O)cc1)c1ccccc1 , thanks.
Reply: 0.3

Task item: Also need CC/C(=C(\c1ccc(C)cc1)c1ccc(OCC(=O)O)cc1)c1ccccc1 , thanks.
Reply: 0.35
